From: patent US12653815B2

- ASSAY_TARGET: human 5-HT4(b) receptor (Homo sapiens)
- Construct: overexpressing the full-length human 5-HT4(b) receptor with an N-terminal FLAG tag; FLAG (N)
- PROCEDURE_DETAILS: 5-HT4(b) agonist assay (cAMP accumulation)
- EXPERIMENTAL_SETUP: CHO-K1 cells overexpressing full-length human 5-HT4(b) receptor; cAMP accumulation after 30 minutes at room temperature; 1 μM 5-HT as 100% activity
QUANTITY_NAME: pEC50
One number for each entry, as −log10 of the molar value.

COc1cc(N)c(Cl)cc1C(=O)N[C@@H]1CCN(CCCCCC(=O)NCCCCCC(=O)NC[C@H](O)[C@@H](O)[C@H](O)[C@H](O)CO)C[C@@H]1OC    7.65
Nc1c(Cl)cc(C(=O)NCC2CCN(CC3CCN(C(=O)CCCCCCCCCCC(=O)NC[C@H](O)[C@@H](O)[C@H](O)[C@H](O)CO)CC3)CC2)c2c1CCO2    8.92
CO[C@H]1CN(CCCCCC(=O)NCCCCCC(=O)NC[C@H](O)[C@@H](O)[C@H](O)[C@H](O)CO)CC[C@H]1NC(=O)c1cc(Cl)c(N)c2c1OCC2    7.92

// each listed compound needs a value for pEC50
1. Nc1c(Cl)cc(C(=O)NC2CCN(CCCCCC(=O)NCCCC(=O)NC[C@H](O)[C@@H](O)[C@H](O)[C@H](O)CO)CC2)c2c1CCO2
2. COc1cc(N)c(Cl)cc1C(=O)N[C@@H]1CCN(CCCCCC(=O)N(C)C2CCN(CCCCCCCC(=O)NC[C@H](O)[C@@H](O)[C@H](O)[C@H](O)CO)CC2)C[C@@H]1OC
3. COc1cc(N)c(Cl)cc1C(=O)N[C@@H]1CCN(CCCCCC(=O)NC2CCN(CCCCCC(=O)NC[C@H](O)[C@@H](O)[C@H](O)[C@H](O)CO)CC2)C[C@@H]1OC
4. CO[C@H]1CN(CCCCCC(=O)NCCCCCCCC(=O)NC[C@H](O)[C@@H](O)[C@H](O)[C@H](O)CO)CC[C@H]1NC(=O)c1cc(Cl)c(N)c2c1OCC2
5. COc1cc(N)c(Cl)cc1C(=O)N[C@@H]1CCN(CCOCCC(=O)NCCCCCCCC(=O)NC[C@H](O)[C@@H](O)[C@H](O)[C@H](O)CO)C[C@@H]1OC

Solution:
7.82
7.58
8.09
8.51
6.70

---

- ASSAY_TARGET: human 5-HT4(b) receptor (Homo sapiens, UniProt Q13639)
- Construct: overexpressing the full-length human 5-HT4(b) receptor with an N-terminal FLAG tag; FLAG (N)
- Sequence (Q13639 whole entry): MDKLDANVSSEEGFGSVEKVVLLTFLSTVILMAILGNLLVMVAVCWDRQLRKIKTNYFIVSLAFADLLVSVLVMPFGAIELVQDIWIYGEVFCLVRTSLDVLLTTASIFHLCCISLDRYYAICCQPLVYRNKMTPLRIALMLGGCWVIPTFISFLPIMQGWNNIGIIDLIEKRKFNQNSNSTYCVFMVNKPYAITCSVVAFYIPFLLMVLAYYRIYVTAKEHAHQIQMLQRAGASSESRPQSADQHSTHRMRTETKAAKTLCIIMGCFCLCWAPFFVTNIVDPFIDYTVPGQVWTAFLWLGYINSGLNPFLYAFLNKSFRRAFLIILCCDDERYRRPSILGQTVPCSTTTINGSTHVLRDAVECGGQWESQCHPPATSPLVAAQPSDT
- PROCEDURE_DETAILS: 5-HT4(b) agonist assay (cAMP accumulation)
- EXPERIMENTAL_SETUP: CHO-K1 cells overexpressing full-length human 5-HT4(b) receptor; cAMP accumulation after 30 minutes at room temperature; 1 μM 5-HT as 100% activity
For each entry below, report its EC50 value.
Give bare numbers, in nM.

Nc1c(Cl)cc(C(=O)NC2CCN(CCCCCC(=O)NC3CCN(CCCCCCCC(=O)NC[C@H](O)[C@@H](O)[C@H](O)[C@H](O)CO)CC3)CC2)c2c1CCO2 [Example 30]    3.7
COc1cc(N)c(Cl)cc1C(=O)N[C@@H]1CCN(CCCCCC(=O)NCCOCCOCCC(=O)NC[C@H](O)[C@@H](O)[C@H](O)[C@H](O)CO)C[C@@H]1OC [Example 7]    23.4
Nc1c(Cl)cc(C(=O)NC2CCN(CCCCCC(=O)NC3CCN(CCCCCC(=O)NC[C@H](O)[C@@H](O)[C@H](O)[C@H](O)CO)CC3)CC2)c2c1CCO2 [Example 31]    6.1
CO[C@H]1CN(CC2CCN(C(=O)CCCCCCCC(=O)NC[C@H](O)[C@@H](O)[C@H](O)[C@H](O)CO)CC2)CC[C@H]1NC(=O)c1cc(Cl)c(N)c2c1OCC2 [Example 41]    1.2

Exercise: Item Nc1c(Cl)cc(C(=O)NCC2CCN(CC3CCN(C(=O)CCCCCCCCC(=O)NC[C@H](O)[C@@H](O)[C@H](O)[C@H](O)CO)CC3)CC2)c2c1CCO2 [Example 39] has what recorded EC50?
Solution: 1.2
